SYSTEM UNDER TEST: Coagulation factor X (Homo sapiens, UniProt P00742)
Sequence (P00742 41-179 limits assumed): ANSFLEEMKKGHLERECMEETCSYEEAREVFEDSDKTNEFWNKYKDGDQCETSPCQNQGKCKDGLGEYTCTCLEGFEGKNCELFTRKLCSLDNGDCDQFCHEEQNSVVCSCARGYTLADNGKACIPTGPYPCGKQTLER
Sequence (P00742 235-488 limits assumed): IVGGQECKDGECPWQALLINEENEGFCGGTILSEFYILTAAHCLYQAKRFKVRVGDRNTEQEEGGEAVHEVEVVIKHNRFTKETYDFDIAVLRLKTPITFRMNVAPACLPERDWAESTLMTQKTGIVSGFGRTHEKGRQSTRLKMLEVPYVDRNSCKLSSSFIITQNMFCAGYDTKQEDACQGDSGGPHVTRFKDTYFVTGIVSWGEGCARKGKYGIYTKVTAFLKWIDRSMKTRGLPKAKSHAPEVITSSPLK
PROCEDURE DETAILS: The compound was evaluated to inhibit the Coagulation factor X
pKi: −log10 of the molar value.
Classification field: enter Y for pKi values not below 5, N for values below it.

{"columns": ["SMILES RECORD", "LABEL CLASS"],
 "data": [
  ["N=C(N)c1ccc(NC(=O)c2cc(Br)ccc2O)cc1", "N"],
  ["N=C(N)c1ccc(NC(=O)c2cc([N+](=O)[O-])ccc2O)cc1", "N"],
  ["COc1ccc(O)c(C(=O)Nc2ccc(C(=N)N)cc2)c1", "Y"],
  ["N=C(N)c1ccc(NC(=O)c2ccc(Cl)cc2O)cc1", "Y"],
  ["CCOc1ccc(C(=O)Nc2ccc(C(=N)N)cc2)c(O)c1", "N"]
]}
